All figures here come from the supplement of paper PMC9233669.

- System: biotinyl-Phe-oxazolone
- assay protocol: self-aminoacylation, catalytic enhancement (BFO) (fold over background); higher = more active; k-Seq, kA / k0A0; sequences stand for … in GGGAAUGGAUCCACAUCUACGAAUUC…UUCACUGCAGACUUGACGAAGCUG
This sample holds only a part of the variants without activity.
Kindly state self-aminoacylation for each of the entries shown.
Give bare numbers.

Reference set, count: 2
Please give the measured self-aminoacylation for this sequence: CUACUUCAAUCAAUCGGUCAG [Fam1A.1 aminoacylation ribozyme variant]
7.4

Please give the measured self-aminoacylation for this sequence: AUUAUCCUGGUCAUCGGGUGA [Fam2.1 aminoacylation ribozyme variant]
69.6

List self-aminoacylation for every entry below, keeping the order given.
1. CUUCUUCAAACCAUCGGUCUG [Fam1A.1 aminoacylation ribozyme variant]
2. AUUCCCCUAGGUCAUCGGGUG [Fam2.2 aminoacylation ribozyme variant]
3. CCACACUUUAAGCAAUCGGGC [Fam1B.1 aminoacylation ribozyme variant]
4. UAGUUUGCUAAUAGUCGCAUG [Fam3.1 aminoacylation ribozyme variant]
5. CCCUACUUCAAGCAAUCGGUC [Fam1B.1 aminoacylation ribozyme variant]
6. CCACAUUUCAAACAAUCGGUC [Fam1B.1 aminoacylation ribozyme variant]
7. CCCCACUUCAAGCGAUCGGUC [Fam1B.1 aminoacylation ribozyme variant]

0.739
196
1.22
3.23
73.5
17.8
5.13

====

- System: biotinyl-Phe-oxazolone
- assay protocol: self-aminoacylation, catalytic enhancement (BFO) (fold over background); higher = more active; k-Seq, kA / k0A0; sequences stand for … in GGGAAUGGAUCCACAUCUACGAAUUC…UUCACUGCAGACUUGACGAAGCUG
Fewer inactive variants are shown than the library holds.
attribute measured: self-aminoacylation
Numbers only.

List self-aminoacylation for every entry below, keeping the order given.
1. AUUAACCUAGGUUAUCGGGUG [Fam2.2 aminoacylation ribozyme variant]
2. AACGUUGCUAAUAGUCGCAAG [Fam3.1 aminoacylation ribozyme variant]
3. AAGUUUGCUAAGAGUGGCAAG [Fam3.1 aminoacylation ribozyme variant]
4. AUAACCCUGGUCAUCGAGUAA [Fam2.1 aminoacylation ribozyme variant]
5. AUUAUCCUGGUCAUCGAGUGA [Fam2.1 aminoacylation ribozyme variant]
6. AUUCACCUAGGUAAUCAGGUG [Fam2.2 aminoacylation ribozyme variant]

17.9
2.3
0.543
7.47
20.7
1.21

List self-aminoacylation for every entry below, keeping the order given.
1. CUACUUAAAACAAUCGGUCUU [Fam1A.1 aminoacylation ribozyme variant]
2. AUUUAACUAGGUCAUCGGGUG [Fam2.2 aminoacylation ribozyme variant]

0.533
31.4

List self-aminoacylation for every entry below, keeping the order given.
1. AUGACACUGGUCAUCGAGUGA [Fam2.1 aminoacylation ribozyme variant]
2. AUUACACUGGUCAUUGAGUGA [Fam2.1 aminoacylation ribozyme variant]
3. CCACACUUGAAGCAACCGGUC [Fam1B.1 aminoacylation ribozyme variant]
4. CUACUUCAACCAAUCGGUCCG [Fam1A.1 aminoacylation ribozyme variant]
5. CUACUUCAAACCAUCGGCCUG [Fam1A.1 aminoacylation ribozyme variant]
6. AGUACCCUGGUCAUAGAGUGA [Fam2.1 aminoacylation ribozyme variant]

[25.8, 35, 0.953, 6.1, 1.51, 15.4]
